Values were extracted from ChEMBL document CHEMBL1139440.

target: Endothelin-1 receptor (Homo sapiens) (UniProt P25101); details: Vero
Sequence (P25101 whole entry): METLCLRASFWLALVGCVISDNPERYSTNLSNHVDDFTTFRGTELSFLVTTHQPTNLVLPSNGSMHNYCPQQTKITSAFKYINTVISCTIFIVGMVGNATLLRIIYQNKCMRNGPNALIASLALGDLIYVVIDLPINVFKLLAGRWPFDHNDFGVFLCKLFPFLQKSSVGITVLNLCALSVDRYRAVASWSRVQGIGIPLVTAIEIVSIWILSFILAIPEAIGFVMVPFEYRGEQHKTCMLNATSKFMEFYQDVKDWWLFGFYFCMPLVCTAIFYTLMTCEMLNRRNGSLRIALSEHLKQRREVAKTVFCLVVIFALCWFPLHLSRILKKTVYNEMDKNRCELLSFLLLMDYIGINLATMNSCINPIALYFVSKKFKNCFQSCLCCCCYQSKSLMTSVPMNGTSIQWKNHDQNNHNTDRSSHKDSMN
Description: Inhibition of [125]ET-1 binding to human Endothelin A receptor expressed in vero cells
pIC50: −log10 of the molar value. Square brackets hold non-standard residues; d marks the D form. Peptide text beside a SMILES is read from it.
Value type: pIC50

# Compound, Target of assay, Value type, Reported value
rows = [
    ("CC(C)C[C@@H]1NC(=O)[C@@H](C(C)C)NC(=O)[C@@H]2CCCN2C(=O)[C@@H](CC(=O)O)NC(=O)[C@@H](Cc2c[nH]c3ccccc23)NC1=O (cyclo(L[dW][dD]P[dV]))", "Endothelin-1 receptor (Homo sapiens) (UniProt P25101)", "pIC50", 7.60),
]

---

target: Endothelin-1 receptor (Rattus norvegicus); test: Ability to displace [125I]ET1 from the rat endothelin A receptor expressed in rat aorta smooth muscle cells.
Sequence (P26684 whole entry): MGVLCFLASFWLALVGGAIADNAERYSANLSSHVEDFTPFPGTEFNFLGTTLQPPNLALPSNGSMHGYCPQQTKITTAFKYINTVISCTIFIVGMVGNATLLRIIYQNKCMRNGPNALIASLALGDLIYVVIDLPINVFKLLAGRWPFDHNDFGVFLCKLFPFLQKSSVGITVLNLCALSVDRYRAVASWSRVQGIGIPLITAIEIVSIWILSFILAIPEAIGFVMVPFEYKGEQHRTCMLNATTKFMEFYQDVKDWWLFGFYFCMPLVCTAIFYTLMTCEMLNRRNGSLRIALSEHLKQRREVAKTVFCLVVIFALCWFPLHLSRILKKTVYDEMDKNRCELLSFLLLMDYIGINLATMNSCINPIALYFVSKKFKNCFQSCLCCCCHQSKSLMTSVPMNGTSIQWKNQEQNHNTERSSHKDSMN
Measured IC50 of individual entries

# Molecule, Endpoint unit, IC50
records = [
    ("CCc1ccc(C(=O)/C(Cc2ccccc2)=C(\\C(=O)O)c2ccc3c(c2)OCO3)cc1", "nM", 630),
    ("COc1ccc([C@H]2[C@H](C(=O)O)[C@@H](c3ccc4c(c3)OCO4)CN2CC(=O)NC(Cc2ccccc2)c2ccccc2)cc1 (some centres not stated)", "nM", 3.9),
    ("COC(=O)CCCCOc1cc(C/C(C(=O)c2ccc(OC)cc2)=C(/C(=O)O)c2ccc3c(c2)OCO3)cc(OC)c1OC", "nM", 0.05),
    ("COc1ccc(C/C(C(=O)c2ccc(OC)cc2)=C(/C(=O)O)c2ccc3c(c2)OCO3)cc1", "nM", 1.8),
    ("COc1cc(/C(C(=O)O)=C(\\CC2CCCCC2)C(=O)c2ccc3c(c2)OCCO3)cc2c1OCO2", "nM", 3.5),
    ("COc1ccc(C(=O)/C(Cc2cccc(OC)c2)=C(\\C(=O)O)c2ccc3c(c2)OCO3)cc1", "nM", 3),
    ("COc1ccc(C(=O)/C(Cc2cc(OC)c(OC)c(OC)c2)=C(\\C(=O)O)c2cc(OC)c3c(c2)OCO3)cc1", "nM", 0.5),
    ("COc1ccc(C(=O)/C(Cc2ccc(-c3ccccc3)cc2)=C(\\C(=O)O)c2ccc3c(c2)OCO3)cc1", "nM", 200),
    ("CCCCN(CCCC)C(=O)CN1C[C@H](c2ccc3c(c2)OCO3)[C@@H](C(=O)O)[C@@H]1CCCCC(C)C", "nM", 0.29),
    ("CCCCN(CCCC)C(=O)CN1C[C@H](c2ccc3c(c2)OCO3)[C@@H](CC(=O)O)[C@@H]1c1ccc(OC)cc1", "nM", 0.5),
    ("CCCNC(=O)CN1C[C@@H](c2ccc3c(c2)OCO3)[C@H](C(=O)O)[C@H]1c1ccc(OC)cc1", "nM", 45.3),
    ("COc1ccc(C(=O)/C(Cc2ccccc2)=C(\\C(=O)O)c2cc(OC)c3c(c2)OCO3)cc1", "nM", 6.7),
    ("C/C=C/CC[C@H]1[C@H](C(=O)O)[C@@H](c2ccc3c(c2)OCO3)CN1CC(=O)N(CCCC)CCCC", "nM", 0.78),
    ("COC1=C(C(=O)O)[C@H](c2ccc3c(c2)OCO3)Oc2ccc(OC(C)C)cc21", "nM", 5.2),
    ("COc1cccc(C(=O)/C(Cc2ccccc2)=C(\\C(=O)O)c2ccc3c(c2)OCO3)c1", "nM", 500),
    ("COc1ccc([C@@H]2[C@@H](CC(=O)O)[C@H](c3ccc4c(c3)OCO4)CN2CC(N)=O)cc1", "nM", 2030),
    ("CCCCC1=C(C(=O)O)C(c2ccc3c(c2)OCO3)Oc2ccc(OC(C)C)cc21 (configuration not stated)", "nM", 410),
]
